Entries and their DC50 values follow.
target: IKZF2 (Homo sapiens, UniProt Q96SW2+Q9UKS7); assay: Human whole blood IKZF2 degradation (flow cytometry, CD4/CD25/Foxp3+ Treg cells); type: cell-based; design: endogenous in cells; conditions: 24 hrs incubation, IKZF2 MFI in CD4/CD25/Foxp3+ Treg cells, flow cytometry, read-out: IKZF2 EC50
Sequence (Q9UKS7 whole entry): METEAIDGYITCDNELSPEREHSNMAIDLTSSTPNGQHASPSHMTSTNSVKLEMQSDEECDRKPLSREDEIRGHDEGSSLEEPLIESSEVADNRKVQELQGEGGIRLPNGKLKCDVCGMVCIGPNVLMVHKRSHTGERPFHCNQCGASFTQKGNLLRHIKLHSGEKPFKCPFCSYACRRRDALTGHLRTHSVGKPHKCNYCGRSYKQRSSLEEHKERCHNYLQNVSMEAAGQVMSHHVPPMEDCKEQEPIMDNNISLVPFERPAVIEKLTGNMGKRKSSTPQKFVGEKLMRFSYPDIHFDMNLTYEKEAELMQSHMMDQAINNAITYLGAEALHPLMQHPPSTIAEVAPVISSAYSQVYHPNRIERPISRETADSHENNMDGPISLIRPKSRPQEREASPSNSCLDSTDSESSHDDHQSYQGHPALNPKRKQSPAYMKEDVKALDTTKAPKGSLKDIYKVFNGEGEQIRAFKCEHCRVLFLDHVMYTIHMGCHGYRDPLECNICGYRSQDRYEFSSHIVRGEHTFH
Sequence (Q96SW2 whole entry): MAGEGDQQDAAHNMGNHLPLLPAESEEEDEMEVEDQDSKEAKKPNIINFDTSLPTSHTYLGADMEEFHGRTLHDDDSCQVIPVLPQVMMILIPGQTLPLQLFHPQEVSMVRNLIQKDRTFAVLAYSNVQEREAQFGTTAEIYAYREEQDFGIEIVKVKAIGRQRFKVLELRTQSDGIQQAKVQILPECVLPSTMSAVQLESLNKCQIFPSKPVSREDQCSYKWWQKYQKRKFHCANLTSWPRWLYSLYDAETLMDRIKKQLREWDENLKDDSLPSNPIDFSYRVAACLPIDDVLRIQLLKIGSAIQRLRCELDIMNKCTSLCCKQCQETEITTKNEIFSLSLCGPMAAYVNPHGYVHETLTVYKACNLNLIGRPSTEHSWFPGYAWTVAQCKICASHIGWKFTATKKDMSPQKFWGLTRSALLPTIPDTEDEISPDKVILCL
Sequence (Q16531 whole entry partner): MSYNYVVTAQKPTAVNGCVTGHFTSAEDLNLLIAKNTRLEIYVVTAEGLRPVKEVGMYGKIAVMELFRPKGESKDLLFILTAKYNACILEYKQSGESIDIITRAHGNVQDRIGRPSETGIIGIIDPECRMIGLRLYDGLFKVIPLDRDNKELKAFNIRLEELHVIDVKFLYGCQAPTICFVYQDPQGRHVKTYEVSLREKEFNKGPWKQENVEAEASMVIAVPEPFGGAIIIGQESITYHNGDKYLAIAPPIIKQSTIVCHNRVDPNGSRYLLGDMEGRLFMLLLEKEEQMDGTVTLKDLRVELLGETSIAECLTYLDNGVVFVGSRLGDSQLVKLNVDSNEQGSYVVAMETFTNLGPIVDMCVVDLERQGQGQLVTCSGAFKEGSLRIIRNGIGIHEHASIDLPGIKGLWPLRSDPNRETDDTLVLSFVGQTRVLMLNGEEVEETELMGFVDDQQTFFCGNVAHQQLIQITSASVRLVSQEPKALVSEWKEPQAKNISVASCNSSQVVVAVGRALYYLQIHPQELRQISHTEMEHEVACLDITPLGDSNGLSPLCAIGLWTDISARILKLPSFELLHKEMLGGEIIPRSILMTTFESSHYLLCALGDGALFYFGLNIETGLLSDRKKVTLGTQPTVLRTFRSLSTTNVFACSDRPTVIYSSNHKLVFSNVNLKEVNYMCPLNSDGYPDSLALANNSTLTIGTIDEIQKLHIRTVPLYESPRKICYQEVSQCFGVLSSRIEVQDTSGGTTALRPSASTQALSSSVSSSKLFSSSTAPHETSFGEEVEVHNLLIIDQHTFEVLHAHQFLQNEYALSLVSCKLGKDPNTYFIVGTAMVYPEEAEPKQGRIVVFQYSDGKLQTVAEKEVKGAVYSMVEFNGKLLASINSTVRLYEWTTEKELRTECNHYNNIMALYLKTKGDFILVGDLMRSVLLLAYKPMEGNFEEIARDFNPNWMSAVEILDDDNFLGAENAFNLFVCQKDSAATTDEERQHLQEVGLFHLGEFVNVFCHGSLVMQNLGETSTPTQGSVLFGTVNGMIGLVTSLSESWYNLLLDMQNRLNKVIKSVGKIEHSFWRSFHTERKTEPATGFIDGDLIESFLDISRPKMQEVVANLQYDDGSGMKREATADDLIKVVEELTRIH
Write it as a number; the unit nM goes unstated.

Example cases with answers are listed next.
- COMPOUND: "O=C1CCC(N2Cc3c(ccc(C[C@H]4OCCC[C@@H]4NC4CCCCC4)c3F)C2=O)C(=O)N1 (stereo partly shown)"
  MEASURE UNIT: "nM"
  DC50: 8
- COMPOUND: "O=C1CCC(N2Cc3cc(C[C@H]4CCCC[C@@H]4NC4CC5(CCOCC5)C4)ccc3C2=O)C(=O)N1 (stereo partly shown)"
  MEASURE UNIT: "nM"
  DC50: 3
- COMPOUND: "CC(C)(C)CCN[C@H]1CCCC[C@@H]1Cc1ccc2c(c1)CN(C1CCC(=O)NC1=O)C2=O (stereo partly shown)"
  MEASURE UNIT: "nM"
  DC50: 8

# evaluate next
IKZF2 (Homo sapiens, UniProt Q96SW2+Q9UKS7) data for CC(N[C@H]1CCCC[C@@H]1Cc1ccc2c(c1)CN(C1CCC(=O)NC1=O)C2=O)C1CCC1 (stereo partly shown) [Example 219] ; its DC50: 10

These entries and their values trace back to patent US11897862B2.
